# target-entity: human bradykinin 1 receptor (B1R) (Homo sapiens, UniProt P46663)
# Construct: expressed in transfected cells
# Sequence (P46663 whole entry): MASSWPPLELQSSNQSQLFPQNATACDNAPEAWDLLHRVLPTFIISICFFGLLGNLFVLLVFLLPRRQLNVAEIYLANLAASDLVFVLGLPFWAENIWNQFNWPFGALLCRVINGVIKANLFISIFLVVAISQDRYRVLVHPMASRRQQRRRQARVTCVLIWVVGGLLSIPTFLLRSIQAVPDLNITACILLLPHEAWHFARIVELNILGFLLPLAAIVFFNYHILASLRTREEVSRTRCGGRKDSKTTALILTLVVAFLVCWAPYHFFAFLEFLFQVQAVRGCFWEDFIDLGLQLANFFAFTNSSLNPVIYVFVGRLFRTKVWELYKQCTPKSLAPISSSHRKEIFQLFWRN
# experiment-notes: FLIPR Ca2+ assay, B1R antagonism, human
# Format: cell-based
# condition: 10 μM test substance; CHO K1 cells with human B1R gene (hB1R cells); Lys-Des-Arg9-bradykinin at EC80; % inhibition compared with the maximum achievable inhibition; read-out: B1R antagonism, human [10 μM] % inhibition
Give measured inhibition at 10 µM for each item. Keep answers brief.
Numbers only, in %.

// for each molecule in input: emit inhibition at 10 µM
1. Cc1cc(S(=O)(=O)N2CCCCC2CCC(=O)N2CCC(OCCN3CCCCC3)(c3cccnc3)CC2)c(C)cc1Cl (centres unmarked)
2. Cc1cccc(Cl)c1S(=O)(=O)N1CCCCC1CCCC(=O)N1CCC(OCCN2CCCC2)(c2cccnc2)CC1 (centres unmarked)
3. COc1cc(C)c(S(=O)(=O)N2CCCCC2COCCC(=O)N2CCC(OCCN3CCCC3)(c3cccnc3)CC2)c(C)c1 (centres unmarked)
4. COc1cc(C)c(S(=O)(=O)N2c3ccccc3CC[C@H]2COCC(=O)N2CCC(OCCN3CCCC3)(c3cccnc3)CC2)c(C)c1
5. COc1cc(C)c(S(=O)(=O)N2CCCCC2CCCC(=O)N2CCC(OCCN3CCCC3)(c3ccncc3)CC2)c(C)c1 (centres unmarked)

Solution:
[101, 100, 100, 99, 100]

###

Give measured inhibition at 10 µM for each item. Keep answers brief.
# target-entity: bradykinin 1 receptor (B1R) of the rat (Rattus norvegicus, UniProt P97583)
# Construct: expressed in transfected cells
# Sequence (P97583 1-337): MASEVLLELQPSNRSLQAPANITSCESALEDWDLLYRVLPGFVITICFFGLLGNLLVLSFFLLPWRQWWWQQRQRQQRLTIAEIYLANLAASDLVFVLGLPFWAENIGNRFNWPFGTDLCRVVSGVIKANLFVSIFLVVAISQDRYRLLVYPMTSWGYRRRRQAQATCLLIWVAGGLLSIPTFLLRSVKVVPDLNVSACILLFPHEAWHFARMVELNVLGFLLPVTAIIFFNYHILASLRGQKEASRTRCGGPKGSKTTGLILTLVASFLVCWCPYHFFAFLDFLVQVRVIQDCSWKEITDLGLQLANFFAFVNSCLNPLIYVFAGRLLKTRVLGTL
# experiment-notes: FLIPR Ca2+ assay, B1R antagonism, rat
# Format: cell-based
# condition: CHO-K1, 10 μM test substance; CHO K1 cells with rat B1R gene (rB1R cells); Des-Arg9-bradykinin at EC80; % inhibition compared with the maximum achievable inhibition; read-out: B1R antagonism, rat [10 μM] % inhibition
Counter-ions that a name gives are not always drawn.
Answer as a quantity: numeral, then unit.

Some compounds with recorded inhibition at 10 µM:
1. COc1cc(C)c(S(=O)(=O)N2CCCCC2COCCC(=O)N2CCC(OCCN3CCCC3)(c3cccc(F)c3)CC2)c(C)c1 (stereo not shown): 99%
2. COc1cc(C)c(S(=O)(=O)N2CCCCC2COCC(=O)N2CCC(OCCN3CCCC3)(c3cccnc3)CC2)c(C)c1 (stereo not shown): 102%
3. Cc1cccc(Cl)c1S(=O)(=O)N1CCCCC1CCCC(=O)N1CCC(OCCN2CCCC2)(c2cccnc2)CC1 (stereo not shown): 102%
4. COc1cc(C)c(S(=O)(=O)N2CCCCC2CCCC(=O)N2CCC(OCCN3CCCC3)(c3ccc(F)cc3)CC2)c(C)c1 (stereo not shown): 95%
5. O=C(CC1CCCCN1S(=O)(=O)c1cccc(C(F)(F)F)c1)N1CCC(OCCCN2CCCCC2)(c2cccnc2)CC1 (stereo not shown): 46%

// for each compound in input: emit inhibition at 10 µM
1. O=C(CCCC1CCCCN1S(=O)(=O)c1ccccc1C(F)(F)F)N1CCC(OCCN2CCCC2)(c2cccnc2)CC1 (stereo not shown)
2. Cc1cc(S(=O)(=O)N2CCCCC2CCC(=O)N2CCC(OCCCN3CCN(C)CC3)(c3cccnc3)CC2)c(C)cc1Cl (stereo not shown)
3. COc1cc(C)c(S(=O)(=O)N2CCCC[C@H]2COCC(=O)N2CCC(OCCN3CCCC3)(c3cccnc3)CC2)c(C)c1 [Example 46, hydrochloride]
4. COc1cc(C)c(S(=O)(=O)N(C)CCOCC(=O)N2CCC(OCCN3CCN(C)CC3)(c3cccnc3)CC2)c(C)c1
5. Cc1cc(S(=O)(=O)N2CCCCC2CCC(=O)N2CCC(OCCCN3CCCC3)(c3cccnc3)CC2)c(C)cc1Cl (stereo not shown)
6. COc1cc(C)c(S(=O)(=O)N(CCOCC(=O)N2CCC(OCC[N+]3(C)CCCC3)(c3cccnc3)CC2)C2CC2)c(C)c1
7. O=C(COCC1CCCCN1S(=O)(=O)c1ccccc1C(F)(F)F)N1CCC(OCCN2CCCC2)(c2cccc(F)c2)CC1 (stereo not shown)
8. O=C(COCCN(C1CCc2ccccc21)S(=O)(=O)c1ccc(Cl)cc1Cl)N1CCC(OCCN2CCCC2)(c2cccnc2)CC1 (stereo not shown)

Solution:
1. 60%
2. 93%
3. 102%
4. 101%
5. 67%
6. 104%
7. 97%
8. 94%

// for each compound in input: emit inhibition at 10 µM
1. COc1cc(C)c(S(=O)(=O)N2c3ccccc3OCC2COCC(=O)N2CCC(OCCN3CCCC3)(c3cccnc3)CC2)c(C)c1 (stereo not shown)
2. Cc1cc(S(=O)(=O)N2CCCCC2CCC(=O)N2CCC(OCCN3CCCCC3)(c3cccnc3)CC2)c(C)cc1Cl (stereo not shown)
3. COc1cc(C)c(S(=O)(=O)N2CCCCC2CCCC(=O)N2CCC(OCCN3CCCC3)(c3ccncc3)CC2)c(C)c1 (stereo not shown)

Solution:
101%
50%
102%
